The reported measurements were obtained from the supplement of paper PMC9170038.

System: MS2 coat protein
Assay: apparent KD of MS2 coat protein; designed switch direction (-1 OFF switch, 1 ON switch): -1; higher = weaker reporter binding
Conditions: input ligand: none
Short version: apparent KD of MS2 coat protein at least 60 nM is Yes, less is No.

monomer_sequence	label_class
GUAAUUAAUGUAGGAUAUGCAAGGCGAAACAUGAGAGAAGGCCAUGUGGAUCACCCAUGUAAUGCGGUCUGCGUACAGAUCGCU [salish99_ExNG1_r4_003] (Eterna round: R96, puzzle: Exclusion NG 1)	Yes
UGAUCUAGCGGAGGAUAUACAUGAGGAUCACCCAUGUAGAAUCCAUGACCGUAGUCGUGGAUCGUGUAGAAGGCCGCUAGAUCU [JL ENG2 3.71] (Eterna round: R96, puzzle: Exclusion NG 2)	No
GUAGAUCGAGUUAGGAUAUGAUUACUAUCCGAAAAUCAGAAGGAACUUGAGGAUCACCCAAGUAUAGAUGAUAU [JR_BMEx4_Sub053] (Eterna round: R97, puzzle: Brourd's mod of Exclusion 4)	No
CUCGUGCAGCAAAGCUGUACGAGUACAUGAGGAUCACCCAUGUAGGAUAUGGUACGCAAAGCGUGCUAGAAGGAUAUGUGAAAG [Mat - Exclusion NG 3 - Mod of JL - D89] (Eterna round: R96, puzzle: Exclusion NG 3)	No

---

Each entry below carries its recorded apparent KD of MS2 coat protein.
System: MS2 coat protein
Assay: apparent KD of MS2 coat protein, switch OFF state (with FMN for OFF switches, without FMN for ON switches); designed switch direction (-1 OFF switch, 1 ON switch): -1; higher = weaker reporter binding
Conditions: FMN input: 0 or 200 uM; Eterna round: R93 (includes R88 designs)
measured_attribute: apparent KD of MS2 coat protein (nM)

>>> df
                           monomer_sequence               measured_attribute  readout_units  readout_number
0  GAAAAACAUGAGGAUCACCCAUGUCAGGAUAUACAAAAUAAAAUAAAAAUAAAAUAAAGUAGAAGGGACAAAAG [Mat - Same state - Mayanna Mod - D107]  apparent KD of MS2 coat protein             nM              49
1  AGCAAGUAAGGAUAUGCGAAGUCAGGACACACACUGACAAAGCAGAAGGUACAUGAGGAUCACCCAUGUAAGCA [Mat - Exaclusion 4 - Eli mod - D62]  apparent KD of MS2 coat protein             nM            14.9
2  AAAACGUGAGGAUAUGCACCAAAAAAGGUAUUUCGGGUACGACAUGAGGAUCACCCAUGUAGAAGGCACGAAAA [Frodo Flailing 13 - Jieux - Exclusion 2]  apparent KD of MS2 coat protein             nM            19.8
3  AAAAAGUGAGGAUAUACAUGAGGAUCACCCAUGUUAAAAAAGGAAAAAAAAAAAAAAUGUAGAAGGCGCAAAAA [water's exclusion 3]  apparent KD of MS2 coat protein             nM              36
4  AAAAAACAUGAGGAUCACCCAUGUGAGGAUAUCCAGAAUGGAAUAAAAUAACAAGAAAGGAGAAGGCACAAAAA [Ex 1 May 37]  apparent KD of MS2 coat protein             nM            42.1
5  AAAAAGUGAGGAUAUUCGGAUAGGAAAACGAAAACCUAUCCGAAGAAGGCACAUGAGGAUCACCCAUGUGGAAG [Mat - Exaclusion 4 - Eli mod - D47]  apparent KD of MS2 coat protein             nM            48.3
